src = PubChem BioAssay (NCI)

- System: UO-31 renal
- test: NCI-60 one-dose screen, 48 h (100 = growth as untreated, 0 = no growth, -100 = all killed)
- reported-conditions: 10 µM
- Method: Growth inhibition of the UO-31 human tumor cell line is measured as a screen for anti-cancer activity. Cells are grown in 96 well plates and exposed to the test compound for 48 hours. Compounds are tested at a single concentration, which is 10^-5 M for most compounds. The reported endpoint is percent growth (GI% or GIPRCNT), where numbers from 0 - 100% represent growth inhibition, and numbers from -100% - 0 represent cell death. For example, a value of 40 represents 60% growth inhibition. […]
Compounds without any hit were thinned out: in the full panel of roughly 83,000, 20% have a hit.
Values of growth strictly less than 90% map to Condition met, and values of at least 90% map to Condition not met.

INSERT INTO results (molecule, class) VALUES
  ('COS(=O)(=O)c1ccc(Br)cc1', 'Condition met'),
  ('Nc1nc(N)c(N=Nc2ccc(C(=O)O)cc2)c(N)n1', 'Condition met');

Hello, I'm reviewing records and need to know if growth of COc1ccc(C(C)C=O)cc1 (stereo not given) is below 90%. Could you check?
Condition not met

Hello, I'm reviewing records and need to know if growth of `O=C(O)c1cccc([N+](=O)[O-])c1O` is below 90%. Could you check?
Condition met

Hello, I'm reviewing records and need to know if growth of `Cc1cc(C)c(CC(=O)O)c(C)c1` is below 90%. Could you check?
Condition not met

Hello, I'm reviewing records and need to know if growth of `Oc1ccc(O)cc1` is below 90%. Could you check?
Condition met

Hello, I'm reviewing records and need to know if growth of `S=c1[nH]ccn1-c1ccccc1Cl` is below 90%. Could you check?
Condition not met

Hello, I'm reviewing records and need to know if growth of `CCCCOC(OCCCC)c1ccccc1` is below 90%. Could you check?
Condition not met

---

- Tested on: A549/ATCC NSCLC
- test: NCI-60 one-dose screen, 48 h (100 = growth as untreated, 0 = no growth, -100 = all killed)
- reported-conditions: 10 µM
This is part of a sample that, as a whole, favours compounds with a hit. Of some 83,000 tested, about 20% had one in any assay.
Reported growth values for a set of compounds
Report only the number, with the unit % understood.

Sample records with growth:
INSERT INTO assay_data (compound, metric_name, reported_result) VALUES
  ('CCCOC(=O)C(O)c1ccccc1 (configuration not stated)', 'growth', 126),
  ('O=C(Cc1ccccc1)Cc1ccccc1', 'growth', 96),
  ('COC(=O)/C=C1\Sc2cc(F)ccc2NC1=O', 'growth', 95.7),
  ('CCCCC(=O)c1ccc(OC)cc1', 'growth', 97.4),
  ('NC(=O)N/N=C\c1ccco1', 'growth', 110);

Fill in the recorded growth for this compound, with A549/ATCC NSCLC as test system: `COc1ccccc1NC(=O)c1cc2cc(Br)ccc2cc1O`
3.54

Fill in the recorded growth for this compound, with A549/ATCC NSCLC as test system: `O=C(O)CCCC(=O)O`
97.9

Fill in the recorded growth for this compound, with A549/ATCC NSCLC as test system: `C=CC(=O)OCCCCCCCC`
99.8

Fill in the recorded growth for this compound, with A549/ATCC NSCLC as test system: OCC1OC(OC2C(O)C(CO)OC2(CO)OC2OC(CO)C(O)C(O)C2O)C(O)C(O)C1O (configuration not stated)
98

Fill in the recorded growth for this compound, with A549/ATCC NSCLC as test system: `CCCNc1ccc(C2=NCCCN2)cc1`
79.2

Fill in the recorded growth for this compound, with A549/ATCC NSCLC as test system: `Cc1ccc(C(=O)NC2c3ccccc3Oc3ccccc32)cc1`
48.9

---

- Tested on: M14 melanoma
- test: NCI-60 one-dose screen, 48 h (100 = growth as untreated, 0 = no growth, -100 = all killed)
- reported-conditions: 10 µM
- Protocol: Growth inhibition of the M14 human tumor cell line is measured as a screen for anti-cancer activity. Cells are grown in 96 well plates and exposed to the test compound for 48 hours. Compounds are tested at a single concentration, which is 10^-5 M for most compounds. The reported endpoint is percent growth (GI% or GIPRCNT), where numbers from 0 - 100% represent growth inhibition, and numbers from -100% - 0 represent cell death. For example, a value of 40 represents 60% growth inhibition. […]
The panel holds about 83,000 compounds, 20% with a hit somewhere; the sample as a whole holds those more often.
metric-name: growth (%)
Report only the number, with the unit % understood.

Sample records with growth:
INSERT INTO results (compound, tested_system, reported_result) VALUES
  ('O=C(CN1CCNCC1)N1CCOCC1', 'M14 melanoma', 103),
  ('N#CC(=Nc1cccc(F)c1)C1=C(O)c2ccccc2C1=O', 'M14 melanoma', 98.2);

Which growth value is on record for CC1Cc2ccccc2O1 (centres undefined) ?
107

Which growth value is on record for `COCCCNC(=O)c1nnn2c1nc(N)c1cc(Cl)ccc12` ?
79.3

---

Reported growth values for a set of molecules
- Tested on: NCI-H23 lung
- test: NCI-60 one-dose screen, 48 h (100 = growth as untreated, 0 = no growth, -100 = all killed)
- reported-conditions: 10 µM
This is part of a sample that, as a whole, favours compounds with a hit. Of some 83,000 tested, about 20% had one in any assay. Where a SMILES comes first, the peptide text is derived from it. Bridges are numbered along the chain shown (N, C = ends). [ ]: non-standard residue; d: D form. The star is where a group is joined. ξ: configuration not given here. ξNMePhe(4-NMe2) = CNC(Cc1ccc(N(C)C)cc1)C(=O)O; Picolinoyl(3-OH) = O=C(c1ncccc1O)*; ξPip(4-oxo) = O=C1CCNC(C(=O)O)C1; Phg = N[CH](C(=O)O)c1ccccc1; Abu = CC[CH](N)C(=O)O
Report only the number, with the unit % understood.

Which growth value is on record for `COc1cc(/C=C(\C#N)C(=O)c2ccccc2)ccc1OCc1ccccc1` ?
91.5

Which growth value is on record for CCC1NC(=O)C(NC(=O)c2ncccc2O)C(C)OC(=O)C(c2ccccc2)NC(=O)C2CC(=O)CCN2C(=O)C(Cc2ccc(N(C)C)cc2)N(C)C(=O)C2CCCN2C1=O (stereo unspecified) (tested in a mixture with another compound) ({Picolinoyl(3-OH)}-T[Abu]P[ξNMePhe(4-NMe2)][ξPip(4-oxo)][Phg]; ester 1-C; configuration not given here) ?
19.7

Which growth value is on record for `COc1cc(C(=O)NC(=S)Nc2ccc3ccccc3c2)cc(OC)c1OC` ?
82.5

Which growth value is on record for `CC(C)(C)n1nc(C2CC2)c(Br)c1NC(=O)c1ccccc1F` ?
117

Which growth value is on record for `O=C(Cc1nc2ccc([N+](=O)[O-])cc2nc1CC(=O)c1ccccc1)c1ccccc1` ?
43.9

---

- System: OVCAR-5 ovarian
- test: NCI-60 one-dose screen, 48 h (100 = growth as untreated, 0 = no growth, -100 = all killed)
- reported-conditions: 10 µM
This is part of a sample that, as a whole, favours compounds with a hit. Of some 83,000 tested, about 20% had one in any assay.
Reported growth values for a set of compounds
Report only the number, with the unit % understood.

INSERT INTO results (compound, tested_system, metric_name, reported_result) VALUES
  ('O=C(c1ccccc1)C1CCC1', 'OVCAR-5 ovarian', 'growth', 109),
  ('[O-][N+](=Nc1cccc(Cl)c1)c1cccc(Cl)c1', 'OVCAR-5 ovarian', 'growth', 88.3),
  ('COc1cc(CN)ccc1O', 'OVCAR-5 ovarian', 'growth', 95.5),
  ('COC(=O)Nc1nc2ccc(C(=O)c3ccc(F)cc3)cc2[nH]1', 'OVCAR-5 ovarian', 'growth', 27.3),
  ('O=C(O)c1cccc([N+](=O)[O-])c1', 'OVCAR-5 ovarian', 'growth', 120),
  ('OCc1ccc(-c2ccc(-c3ccc(CO)s3)o2)s1', 'OVCAR-5 ovarian', 'growth', 103),
  ('CC1SC(N)=NC1=O (centres undefined)', 'OVCAR-5 ovarian', 'growth', 85.9),
  ('COc1ccc(-c2cc(-c3cc(-c4ccc(OC)cc4)nc(N)n3)nc(N)n2)cc1', 'OVCAR-5 ovarian', 'growth', 93.5),
  ('CCC(=O)Oc1ccc(OC)cc1', 'OVCAR-5 ovarian', 'growth', 102),
  ('CC(=O)c1ccc(C)c(N)c1', 'OVCAR-5 ovarian', 'growth', 102);

Which growth value is on record for COc1cccc(/C=N/NC(=S)NC2CC3CCC2C3)c1O (centres undefined) ?
85.1

Which growth value is on record for `CCCCC/C=N/Nc1nc(C)cc(=O)[nH]1` ?
104

Which growth value is on record for `CCOc1ccc(Br)cc1/C=N\N=C\c1cc(Br)ccc1OCC` ?
107

Which growth value is on record for `O=C(Nc1cc(-c2ccccc2)[nH]n1)c1ccc(Cl)cc1` ?
80.7
